System: RARb homodimer (NR concentration 270 nM)
Assay: PBM binding z-score (relative to random genomic background probes); higher = stronger binding; sequences stand for … in GC…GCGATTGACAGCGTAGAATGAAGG
Value type: PBM binding z-score
Give bare numbers.

>  <Sequence input>
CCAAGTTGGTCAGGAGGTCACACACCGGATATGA

>  <Value type>
PBM binding z-score

>  <Measurement>
4.38

$$$$
>  <Sequence input>
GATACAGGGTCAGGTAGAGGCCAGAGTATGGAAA

>  <Value type>
PBM binding z-score

>  <Measurement>
3.48

$$$$
>  <Sequence input>
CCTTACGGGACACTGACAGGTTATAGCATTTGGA

>  <Value type>
PBM binding z-score

>  <Measurement>
0.492

$$$$
>  <Sequence input>
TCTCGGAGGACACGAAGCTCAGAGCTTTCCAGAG

>  <Value type>
PBM binding z-score

>  <Measurement>
0.381

$$$$

With those in mind, consider the next sequence.
Query :: Given the sequence "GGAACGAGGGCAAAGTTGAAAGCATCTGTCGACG" , what is its reported PBM binding z-score?
Result :: 1.51

This collection of values is drawn from the supplement of paper PMC6555819.
